- procedure details: melting temperature; fluorescence melt of hairpins on a sequencing array, two-state fit, raised by 9.35 °C to match UV melts
- condition summary: sodium 0.088 M
Decision: Tm >= 50 °C yields true, all other cases yield false.

Please review the following examples before continuing.
seq	class name
GCTATACCGAAAGGTAGC (((..(((....))))))	false
GGTGACGAAAGTCGTACC ((((((....)))..)))	false
GCTCACGAAAGTGGAGC ((((((....))).)))	true

Decide: is the reported value of Tm for GCGTAGCGAAAGCGATGC ((.(.((....)).).)) equal to or greater than 50 °C? true

Identify whether the reported Tm of the following sequence is 50 °C or greater: GTGGACGCGAAAGCGCAC (((..(((....)))))) false

Could you please find out whether GCCTCACGAAAGTGTGGC (((.(((....))).))) has Tm that meets 50 °C or exceeds it? true

// inclusive: Tm at least 50 °C? input: GGCTCTGGAAACAAAGCC ((((.((....)).)))) false

Hi team, for GGATCCGAAAGGATATCC ((((((....)))..))) , is the recorded Tm at or above 50 °C? false

Has GATCGTGGAAACATGATC ((((.((....)).)))) a recorded Tm greater than or equal to 50 °C? false

Does the reported Tm for GAAACCGAAAGGTCTTC ((((((....))).))) fall at or above the 50 °C mark? false
